- METHOD: CHI lipophilicity by gradient reversed-phase HPLC (Gemini NX-C-18)
- MEASUREMENT CONTEXT: Gemini NX-C-18 reversed-phase HPLC column, pH 7.4
Assign class by chromatographic logD: not lower than 2 means YES; lower than 2 means NO.

Some solved cases for reference:
COMPOUND | LABEL
CC(C)NCC(O)c1ccc(NS(C)(=O)=O)cc1 (centres unmarked) | NO
CC(C)c1nc(CN(C)C(=O)N[C@H](C(=O)N[C@@H](Cc2ccccc2)C[C@H](O)[C@H](Cc2ccccc2)NC(=O)OCc2cncs2)C(C)C)cs1 | YES
CN1CCN(C2=Nc3cc(Cl)ccc3Nc3ccccc32)CC1 | YES
CCOC(=O)C1=C(C)NC(C)=C(C(=O)OC)C1c1cccc([N+](=O)[O-])c1 (centres unmarked) | YES
O=C(O[C@@H]1C[C@@H]2C[C@H]3C[C@H](C1)N2CC3=O)c1c[nH]c2ccccc12 | NO
CN1CCc2cccc3c2[C@H]1Cc1ccc(O)c(O)c1-3 | NO
CN1CCN(CCCN2c3ccccc3Sc3ccc(C(F)(F)F)cc32)CC1 | YES

Then this compound:
Q: Assess whether reported chromatographic logD for COc1ccc(Cl)cc1C(=O)NCCc1ccc(S(=O)(=O)NC(=O)NC2CCCCC2)cc1 [Glibenclamide] sits at 2 or higher.
A: YES
